The origin of these recorded values is patent US11926619B2.

# tgt: SF3b complexes (Homo sapiens, UniProt O75533+Q7RTV0)
# Construct: endogenous in cells
# test method notes: Scintillation proximity assay (SPA) with [3H]-labelled pladienolide probe
# measurement setup: wt SF3B1, read-out: SPA (wt SF3B1 cells) IC50
Let's look at some molecules and their measured pIC50.
A value of pIC50 is the negative decimal logarithm of a concentration given in moles per litre.

Here are 2 molecules together with their reported answers.
C/C(=C\C=C\[C@@H](C)c1ccccn1)[C@H]1OC(=O)C[C@H](O)CC[C@@](C)(O)[C@@H](OC(=O)N2CC[N+](C)([O-])CC2)/C=C/[C@@H]1C; 8.23
CC[C@H](O)[C@@H](C)[C@H]1O[C@@H]1C[C@@](C)(O)/C=C/C=C(\C)[C@H]1OC(=O)C[C@H](O)CC[C@@](C)(OC)[C@@H](OC(=O)N2CCN(CCCC(=O)O)CC2)/C=C/[C@@H]1C; 7.84

# ---- query molecule ----
Entry C/C(=C\C=C\C(C)c1ccncn1)[C@H]1OC(=O)C[C@H](O)CC[C@@](C)(O)[C@@H](OC(=O)N2CCN(C3CCCCCC3)CC2)/C=C/[C@@H]1C (stereo partly drawn) — recorded pIC50 = 6.30
